These data points were gathered from paper PMC6722131.

- test.system: guinea pig TRPV1 (Cavia porcellus)
- Construct: cDNA by RT-PCR from guinea pig brain mRNA; transiently expressed in 293-F cells
- test: FLIPR calcium flux, fluo-4
- Type: cell-based
- condition.details: read-out: Fluo-4 pEC50 (converted)
recorded.endpoint: EC50 (nM)
Quick reminder: number only, in nM, skip the unit.

Below are worked cases with known answers.
Which EC50 value is on record for CCCCCCCC/C=C\CCCCCCCC(=O)NCc1ccc(O)c(OC)c1 [olvanil] ?
20.9

What about COc1cc(CNC(=O)CCCCCCC(C)C)ccc1O [dihydrocapsaicin] ?
61.7

Now the compound COc1cc(CNC(=O)CCCC/C=C/C(C)C)ccc1O [capsaicin]
69.2

Further cases:
Sample CCCCC/C=C\C/C=C\C/C=C\C/C=C\CCCC(=O)NCc1ccc(O)c(OC)c1 [arvanil] — what was its EC50?
174

----------
- test.system: guinea pig TRPV1 (Cavia porcellus, UniProt Q6R5A3)
- Construct: cDNA by RT-PCR from guinea pig brain mRNA; transiently expressed in 293-F cells
- Sequence (Q6R5A3 whole entry): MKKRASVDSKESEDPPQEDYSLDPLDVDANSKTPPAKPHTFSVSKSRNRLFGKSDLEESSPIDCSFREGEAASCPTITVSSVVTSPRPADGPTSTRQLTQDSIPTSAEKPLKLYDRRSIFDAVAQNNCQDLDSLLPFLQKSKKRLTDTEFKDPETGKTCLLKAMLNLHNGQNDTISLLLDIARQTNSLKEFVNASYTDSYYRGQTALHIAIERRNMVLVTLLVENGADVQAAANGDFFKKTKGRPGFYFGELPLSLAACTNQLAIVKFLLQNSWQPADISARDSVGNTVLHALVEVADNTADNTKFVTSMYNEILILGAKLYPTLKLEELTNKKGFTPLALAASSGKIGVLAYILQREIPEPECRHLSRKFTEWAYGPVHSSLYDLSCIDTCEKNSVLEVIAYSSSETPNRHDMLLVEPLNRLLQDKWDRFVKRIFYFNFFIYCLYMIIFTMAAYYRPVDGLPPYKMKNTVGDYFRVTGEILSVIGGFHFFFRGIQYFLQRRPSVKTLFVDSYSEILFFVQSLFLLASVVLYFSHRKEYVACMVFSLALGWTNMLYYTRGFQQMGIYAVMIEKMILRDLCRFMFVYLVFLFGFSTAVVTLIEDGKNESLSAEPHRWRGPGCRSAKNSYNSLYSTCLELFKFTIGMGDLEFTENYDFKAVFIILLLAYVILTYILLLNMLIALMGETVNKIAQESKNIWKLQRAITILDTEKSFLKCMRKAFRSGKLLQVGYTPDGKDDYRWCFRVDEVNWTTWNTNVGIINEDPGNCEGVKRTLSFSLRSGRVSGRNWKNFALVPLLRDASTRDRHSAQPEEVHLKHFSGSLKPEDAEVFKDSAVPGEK
- test: FLIPR calcium flux, fluo-4
- Assay type: cell-based
- condition.details: antagonist; capsaicin challenge (10 µM in text, 150 nM in Figure 5 legend), 60 min pre-incubation, 20 µM Ca2+, pH 7.4
recorded.endpoint: Fluo-4 pEC50

Before answering, review these 3 worked examples.
I have this molecule here, O=C(Nc1ccc(C(F)(F)F)cn1)N1CCN(c2ncccc2C(F)(F)F)CC1 , and I need its recorded Fluo-4 pEC50.
6.71 ± 0.22 -log10(M)

Subsequent entry: CC(C)(C)c1ccc(/C=C/C(=O)Nc2ccc3c(c2)OCCO3)cc1
6.82 ± 0.07 -log10(M)

// repeat for FC(F)(F)c1ccc(Nc2ncnc3sc(Cc4c(Cl)cccc4Cl)nc23)cc1 and report
7.18 ± 0.11 -log10(M)

Continue with the next molecule.
# query: Fluo-4 pEC50 of entry N.N.N.N.N.N.N.N.N.N.N.N.N.N.[Cl-].[Cl-].[Cl-].[Cl-].[Cl-].[Cl-].[O-2].[O-2].[Ru+3].[Ru+3].[Ru+4]
6.07 ± 0.13 -log10(M)
